Tested on: carbapenem-resistant clinical strain, WC-452
test: Checkerboard assay to examine synergy with antibiotics in CAA/HuS
Assay type: cell-based, P. aeruginosa
assay_setup: lysin + colistin
outcome_measure: FICI, Colistin
Numbers only.

| molecule | outcome_measure | value |
| --- | --- | --- |
| GN4: Native lysin, YP_002284361.1/Lysozyme, SEQ ID NO: 3; first disclosed in WO/2017/049233 (protein, Pseudomonas phage PAJU2) MRTSQRGIDLIKSFEGLRLSAYQDSVGVWTIGYGTTRGVTRYMTITVEQAERMLSNDIQRFEPELDRLAKVPLNQNQWDALMSFVYNLGAANLASSTLLKLLNKGDYQGAADQFPRWVNAGGKRLDGLVKRRAAERALFLEPLS | FICI, Colistin | 0.156 |
| GN150: Native lysin, WP_034684053.1/VanY, SEQ ID NO: 19 (protein, listed as Acinetobacter sp.) MSFKLGKRSLSNLEGVHPDLIKVVKRAIELTECDFTVTEGLRSKERQAQLLKEKKTTTSNSRHLTGHAVDLAAWVNNTVSWDWKYYYQIADAMKKAASELNVSIDWGGDWKKFKDGPHFELTWSKYPIKGAS | FICI, Colistin | 0.094 |

Please fill in: FICI, Colistin reported for GN37: Native lysin, WP_014102102.1/VanY, SEQ ID NO: 12; first disclosed in WO/2017/049233 (protein, listed as Micavibrio aeruginosavorus) MTYTLSKRSLDNLKGVHPDLVAVVHRAIQLTPVDFAVIEGLRSVSRQKELVAAGASKTMNSRHLTGHAVDLAAYVNGIRWDWPLYDAIAVAVKAAAKELGVAIVWGGDWTTFKDGPHFELDRSKYR = 0.156
